Assay: chemical genetic growth profiling, strain panel (AID 1159580);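 also: tested at 20 µM; growth read once vehicle control cultures reached saturation at 30 °C; 1 = growth at the plate median or of vehicle wells; lower values mean less growth of the strain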
Conditions: S. cerevisiae deletion strains, growth OD, locus YLR058C, strain SHM2 (second series), hits give low values
Hit rate of the full screen: of about 5,500 compounds, about 2,000 (36%) were called active. Roughly 18% stayed inconclusive and do not appear here. The list shows a part of the results.
Reported normalized growth values are given for each entry in this list.

These solved cases illustrate the format of a correct answer.
molecule	normalized growth
Cc1ccc(N=Cc2cccs2)cc1Cl	1.01 (inactive)
Cc1nn(-c2ccccc2)nc1C(=O)NNC(=S)Nc1ccc(Cl)cc1	1.01 (inactive)
COc1cccc(C(=O)N/N=C(/C)c2ccccc2O)c1	0.994 (inactive)
N#C/C(=C\N(CCS(=O)(=O)c1ccc(Cl)cc1)Cc1cccs1)S(=O)(=O)c1ccc(Cl)cc1	1 (inactive)
COc1cccc(NC(=O)NC2Cc3ccccc3C2)c1	0.992 (inactive)

normalized growth in this record for "CCOC(=O)c1cnc2nc(SC)nn2c1N" : 0.994 (inactive)

normalized growth in this record for "Cc1ccc(N=Nc2c(C)[nH]n(C)c2=O)cc1" : 0.955 (inactive)

normalized growth in this record for CC(=O)C1C(=O)CC(c2ccc(Cl)cc2)CC1=O (stereo not given) : 0.761 (active)

###

Assay: chemical genetic growth profiling, strain panel (AID 1159580)
Conditions: S. cerevisiae deletion strains, growth OD, locus YPR163C, strain tif3
Hit rate of the full screen: of about 5,500 compounds, about 2,000 (36%) were called active. About 18% were inconclusive and are not listed. No stated cut-off is given here; in the data, active means normalized growth mostly below about 0.91 (no sharp cut-off); inconclusive means no clear call, values can overlap the other calls; inactive means mostly above about 0.92. Some of the results follow.
Please answer using one outcome listed in active, inactive

See these solved cases before continuing.
compound	qualitative-label
COc1cc(-c2oc3cc(O)ccc3c(=O)c2O)cc(OC)c1OC	inactive
COc1cc2c(cc1O)CCNC2C (stereo not given)	inactive
OC(c1cc(C(F)(F)F)nc2c(C(F)(F)F)cccc12)C1CCCCN1 (stereo not given)	inactive
CC(=O)OCC1=C(C(=O)O)N2C(=O)[C@@H](NC(=O)CCCC(N)C(=O)O)C2SC1 (stereo not given in full)	inactive
Cc1onc(-c2ccccc2)c1C(=O)NC1C(=O)N2[C@@H]1SC(C)(C)[C@@H]2C(=O)O (stereo not given in full)	inactive

Which outcome was assigned to "Cc1onc(-c2ccccc2Cl)c1C(=O)N[C@@H]1C(=O)N2[C@@H]1SC(C)(C)[C@@H]2C(=O)O" in this test?
inactive

###

Reported normalized growth values are given for each entry in this list.
Assay: chemical genetic growth profiling, strain panel (AID 1159580)
Conditions: S. cerevisiae deletion strains, growth OD, locus YIL066C, strain RNR3, hits give low values
About 2,000 (36%) of roughly 5,500 compounds were called active. Not shown: some 18% with an inconclusive outcome. The list shows a part of the results.

These solved cases illustrate the format of a correct answer.
compound	reported-property	result
CCC1(CC)C(=O)C=CNC1=O	normalized growth	0.996 (inactive)
COc1cc2c(cc1OC)-c1c(oc3c4c(ccc3c1=O)OC(C(C)C)C4)CO2 (configuration not stated)	normalized growth	1.03 (inactive)
CC1=CC2C(C(C)C)CCC(C)(O)C2CC1 (configuration not stated)	normalized growth	0.968 (inactive)

normalized growth in this record for "NC(=O)N1c2ccccc2C=Cc2ccccc21" : 1.04 (inactive)

normalized growth in this record for "CCN(CC)CCNC(=O)c1cc(Cl)c(N)cc1OC" : 1.02 (inactive)

normalized growth in this record for CC(=O)OCC1=C(C(=O)O)N2C(=O)[C@@H](NC(=O)CCCC(N)C(=O)O)C2SC1 (some centres not stated) : 1.04 (inactive)

normalized growth in this record for "CC(=O)NO" : 0.979 (inactive)

normalized growth in this record for "CC(=O)N[C@@H](Cc1c[nH]c2ccccc12)C(=O)O" : 1 (inactive)

normalized growth in this record for "O=C(O)c1cc(=O)c2cccc(O)c2[nH]1" : 0.994 (inactive)

###

Reported normalized growth values are given for each entry in this list.
Assay: chemical genetic growth profiling, strain panel (AID 1159580);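 also: tested at 20 µM; growth read once vehicle control cultures reached saturation at 30 °C; 1 = growth at the plate median or of vehicle wells; lower values mean less growth of the strain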
Conditions: S. cerevisiae deletion strains, growth OD, locus YOR070C, strain gyp1, hits give low values
Screen size: about 5,500 compounds; about 2,000 (36%) were called active. Not shown: some 18% with an inconclusive outcome. This is one part of the list.
# print the numeric value only

compound	normalized growth
O=c1oc2c(O)c(O)cc3c(=O)oc4c(O)c(O)cc1c4c23	0.593
O=C(O)c1cc(=O)c2c(Cl)cc(Cl)cc2[nH]1	1.01
COc1cc(NS(=O)(=O)c2ccc(N)cc2)ncn1	0.984
CCC1C(=O)OCC1Cc1cncn1C (centres undefined)	1.02
CC(=O)OCC(=O)[C@@]12OC3(CCCC3)O[C@@H]1CC1C3CCC4=CC(=O)C=C[C@]4(C)[C@@]3(F)[C@@H](O)C[C@@]12C (some centres undefined)	1.02
OCCN1CCN(CCCN2c3ccccc3Sc3ccc(C(F)(F)F)cc32)CC1	0.938
CO[C@H]1C[C@H](O[C@H]2[C@H](C)[C@@H](OC3O[C@H](C)C[C@H](N(C)C)[C@H]3OC(C)=O)[C@@H](C)C[C@]3(CO3)C(=O)[C@H](C)[C@@H](OC(C)=O)[C@@H](C)[C@@H](C)OC(=O)[C@@H]2C)O[C@@H](C)[C@@H]1OC(C)=O (some centres undefined)	1.01
CC1(C)C=Cc2cc3ccc(=O)oc3cc2O1	0.981
Cc1onc(-c2c(Cl)cccc2Cl)c1C(=O)N[C@@H]1C(=O)N2[C@@H]1SC(C)(C)[C@@H]2C(=O)O	1.01
Cc1onc(-c2ccccc2)c1C(=O)NC1C(=O)N2[C@@H]1SC(C)(C)[C@@H]2C(=O)O (some centres undefined)	1.02

normalized growth in this record for COc1cc2c(cc1OC)[C@@H]1C(=O)c3ccc4c(c3O[C@@H]1CO2)CC(C(C)C)O4 (some centres undefined) : 0.961

normalized growth in this record for "CC[C@@H](CO)NC(=O)[C@@H]1C=C2c3cccc4[nH]cc(c34)C[C@H]2N(C)C1" : 1

normalized growth in this record for "O=C(CCBr)N1CCN(C(=O)CCBr)CC1" : 1.02

normalized growth in this record for "O=C(O)c1cc(=O)c2cccc(O)c2[nH]1" : 1.02

normalized growth in this record for "COc1cnc(NS(=O)(=O)c2ccc(N)cc2)nc1" : 1.01

normalized growth in this record for "CN1CCN(CC(=O)N2c3ccccc3C(=O)Nc3cccnc32)CC1" : 1.02

normalized growth in this record for "Cc1onc(-c2ccccc2Cl)c1C(=O)N[C@@H]1C(=O)N2[C@@H]1SC(C)(C)[C@@H]2C(=O)O" : 1.01

normalized growth in this record for "C=C(C)[C@H]1Cc2c(ccc3c2O[C@@H]2COc4cc(OC)c(OC)cc4[C@@H]2C3=O)O1" : 0.961

normalized growth in this record for "CN1CCN(CCC=C2c3ccccc3Sc3ccc(S(=O)(=O)N(C)C)cc32)CC1" : 0.991

###

Experiment: chemical genetic growth profiling, strain panel (AID 1159580);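 also: tested at 20 µM; growth read once vehicle control cultures reached saturation at 30 °C; 1 = growth at the plate median or of vehicle wells; lower values mean less growth of the strain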
Settings: S. cerevisiae deletion strains, growth OD, locus YOR270C, strain vph1, hits give low values
Among all 5,500 compounds or so, about 2,000 (36%) were called active. Inconclusive results (about 18%) are left out. Some of the results follow.
reported-property: normalized growth
# print the numeric value only

These solved cases illustrate the format of a correct answer.
compound	normalized growth
COc1cc(O)cc(OC)c1OC	0.986
O=c1[nH]cnc2c1ncn2C1O[C@H](CO)[C@@H](O)[C@H]1O (some centres not stated)	0.987
OCCN1CCN(CCCN2c3ccccc3Sc3ccc(C(F)(F)F)cc32)CC1	0.788
C#CC1(O)CCC2C3CCC4=CC(=O)CCC4(C)C3CCC21C (configuration not stated)	0.727
NC(=O)N1c2ccccc2C=Cc2ccccc21	1.1

normalized growth in this record for "Cc1cc(=O)n(-c2ccccc2)n1C" : 0.964

normalized growth in this record for "c1ccc([C@H]2CN3CCSC3=N2)cc1" : 1.02

normalized growth in this record for "COc1cnc(NS(=O)(=O)c2ccc(N)cc2)nc1" : 1.04

normalized growth in this record for CC(=O)OCC(=O)[C@@]1(O)CCC2C3CCC4=CC(=O)CC[C@]4(C)C3[C@@H](O)C[C@@]21C (some centres not stated) : 1.03

normalized growth in this record for "CC(=O)NS(=O)(=O)c1ccc(NC(=O)c2ccccc2C(=O)O)cc1" : 1.05

normalized growth in this record for "COc1cc(/C=C/C(=O)N2CCC=CC2=O)cc(OC)c1OC" : 0.976

normalized growth in this record for COC1(C)CCC2OC2(C)CCC2C1CC2(C)C (configuration not stated) : 1.15

###

Assay: chemical genetic growth profiling, strain panel (AID 1159580);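 also: tested at 20 µM; growth read once vehicle control cultures reached saturation at 30 °C; 1 = growth at the plate median or of vehicle wells; lower values mean less growth of the strain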
Conditions: S. cerevisiae deletion strains, growth OD, locus YDL035C, strain GPR1
Screen size: about 5,500 compounds; about 2,000 (36%) were called active. Inconclusive results (about 18%) are left out. Rule as the data show it: active = normalized growth mostly below about 0.91 (no sharp cut-off); inconclusive = no clear call, values can overlap the other calls; inactive = mostly above about 0.92. This is one part of the list.
Please answer using one outcome listed in 1 for active, 0 for inactive

See these solved cases before continuing.
compound	qualitative-label
NC(=O)NO	0
COc1ccc(C2C(=O)c3ccccc3C2=O)cc1	0
CC1(C)S[C@@H]2[C@H](NC(=O)Cc3ccccc3)C(=O)N2[C@H]1C(=O)O	0
CC1=C(O)C(=O)C=C2C1=CC=C1[C@@]2(C)CC[C@@]2(C)[C@@H]3C[C@](C)(C(=O)O)CC[C@]3(C)CC[C@]12C	1
CCCc1nc2c(C)cc(-c3nc4ccccc4n3C)cc2n1Cc1ccc(-c2ccccc2C(=O)O)cc1	0

Which outcome was assigned to COP(=O)(OC)OC(Br)C(Cl)(Cl)Br (stereo not given) in this test?
0

# credit: PubChem BioAssay AID1159580
